Test system: EGFR Del19/T790M/C797S (BaF3-DTC cells)
protocol text: EGFR degradation HTRF assay, BaF3-DTC cells
Type: cell-based
condition info: 16h treatment, maximum percentage of degradation
Hi, to clarify the labels: met covers DTC Dmax (%) from 90% upward, not met covers anything below 90%.

Sample answers from the record:
compound="CCc1cc(Nc2ncc(Br)c(Nc3ccc4nccnc4c3P(C)(C)=O)n2)c(OC)cc1N1CCC(N2CCN(C(=O)C3CCN(CC4CCN(c5ccc6c(c5)C(=O)N(C5CCC(=O)NC5=O)C6=O)CC4)CC3)CC2)CC1 (centres unmarked)" cat="not met"
compound="COc1cc(N2CCC(N3CCN(CCc4ccc(C5CCC(=O)NC5=O)c(F)c4)CC3)CC2)ccc1Nc1ncc(Br)c(Nc2ccc3nccnc3c2P(C)(C)=O)n1 (centres unmarked)" cat=met

Moving on to another compound below.
**Query** Check the entry CCc1cc(Nc2ncc(Br)c(Nc3ccc4ncn(C)c(=O)c4c3P(C)(C)=O)n2)c(OC)cc1N1CCC(N2CCN(CCc3cccc4c3n(C)c(=O)n4C3CCC(=O)NC3=O)CC2)CC1 (centres unmarked) : does DTC Dmax (%) equal or exceed 90%?
**Result** met
